Test system: 889142-216-R-J1-PDC complex spheroid viability;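 also: spheroids exposed to compounds for seven days; 100% = DMSO vehicle control viability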
test name: Anticancer human tumor 889142-216-R-J1-PDC patient-derived bladder carcinoma cell line growth inhibition [POLQ]
condition info: second compound 1 µM; first compound 3.16 µM; stronger effect = lower value
assay readout: viability, T/C

Below, 2 compounds whose answers are already recorded.
- compound: "CC1COCCN1c1cc(C2(S(C)(=N)=O)CC2)nc(-c2ccnc3[nH]ccc23)n1 (stereo not drawn) + Cc1cccc(N(C)C(=O)C2C(O)CCN2c2nc(C)cc(C(F)(F)F)c2C#N)c1"
  measurement target: "889142-216-R-J1-PDC complex spheroid viability"
  viability, T/C: "50%"
- compound: "C#Cc1c(F)ccc2cc(O)cc(-c3ncc4c(N5CC6CCC(C5)N6)nc(OCC56CCCN5CC(F)C6)nc4c3F)c12 (stereo not drawn) + Nc1ccc(C#CCN(C(=O)Cc2ncc(C(F)(F)F)cc2C(F)(F)F)c2ccc(F)cc2)nn1"
  measurement target: "889142-216-R-J1-PDC complex spheroid viability"
  viability, T/C: "65.3%"

// next entry
Req: Given the entry CC(C)n1c(=O)n(C)c2cnc3cc(F)c(-c4ccc(OCCCN5CCCCC5)nc4)cc3c21 + Nc1ccc(C#CCN(C(=O)Cc2ncc(C(F)(F)F)cc2C(F)(F)F)c2ccc(F)cc2)nn1 , report its measured viability, T/C.
Resp: 57.3%
